experiment: Oral bioavailability (i.v. administration); assay type: ADME, organism-based; conditions: rat, in vivo
observable: bioavailability (%)

{"smiles entry": "CCCC[C@H](NC(=O)O[C@H](Cc1nnc(-c2ccc(C(F)(F)F)cc2)o1)C(C)(C)C)C(=O)C(=O)Nc1ccn[nH]1", "bioavailability / %": 50}
{"smiles entry": "CCCC[C@H](NC(=O)O[C@H](Cn1cc(-c2ccc(C(F)(F)F)cc2)cn1)C(C)(C)C)C(=O)C(=O)Nc1ccn[nH]1", "bioavailability / %": 45}
{"smiles entry": "CCCC[C@H](NC(=O)O[C@H](Cn1ccc(-c2ccc(C(F)(F)F)cc2)n1)C(C)(C)C)C(=O)C(=O)Nc1ccccn1", "bioavailability / %": 34}
{"smiles entry": "CCCC[C@H](NC(=O)O[C@H](Cn1ccc(-c2ccc(C(F)(F)F)cc2)n1)C(C)(C)C)C(=O)C(=O)NCc1ccno1", "bioavailability / %": 40}
{"smiles entry": "CCCC[C@H](NC(=O)O[C@H](Cc1nnc(-c2ccc(F)cc2)o1)C(C)(C)C)C(=O)C(=O)Nc1ccn[nH]1", "bioavailability / %": 88}

P: CCCC[C@H](NC(=O)O[C@H](Cn1cnc(-c2ccc(C(F)(F)F)cc2)c1)C(C)(C)C)C(=O)C(=O)Nc1nccs1
Q: CCCC[C@H](NC(=O)O[C@H](Cn1ccc(-c2ccc(C(F)(F)F)cc2)n1)C(C)(C)C)C(=O)C(=O)Nc1ccn[nH]1
Higher bioavailability: P or Q ? Answer by stating the label of the chosen item.
P
(P: 43%, Q: 9.6%)

Where these numbers come from: ChEMBL document CHEMBL1142749
